testedSystem: Ubiquitin carboxyl-terminal hydrolase 2 (Homo sapiens) (UniProt O75604)
Sequence (O75604 whole entry, looked up): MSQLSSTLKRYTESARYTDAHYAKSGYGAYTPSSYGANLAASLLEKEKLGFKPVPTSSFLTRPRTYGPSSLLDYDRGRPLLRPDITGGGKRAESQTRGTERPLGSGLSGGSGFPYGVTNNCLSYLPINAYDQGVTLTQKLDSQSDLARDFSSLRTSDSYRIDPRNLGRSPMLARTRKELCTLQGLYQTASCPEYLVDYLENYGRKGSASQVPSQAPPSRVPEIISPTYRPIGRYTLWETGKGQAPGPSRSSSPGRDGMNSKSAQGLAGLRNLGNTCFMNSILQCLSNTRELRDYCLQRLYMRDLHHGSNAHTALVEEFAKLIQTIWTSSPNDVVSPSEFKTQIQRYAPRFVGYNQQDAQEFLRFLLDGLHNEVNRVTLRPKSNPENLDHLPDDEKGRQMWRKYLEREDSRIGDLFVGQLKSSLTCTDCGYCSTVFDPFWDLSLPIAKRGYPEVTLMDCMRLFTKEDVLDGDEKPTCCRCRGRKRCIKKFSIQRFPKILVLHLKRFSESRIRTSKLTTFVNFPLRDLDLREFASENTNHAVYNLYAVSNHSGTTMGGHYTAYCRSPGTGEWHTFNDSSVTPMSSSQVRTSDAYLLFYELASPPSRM
assayComment: Ub-rhodamine 110 based assay for inhibitors Ubiquitin-specific Protease USP2a; note: nearly all actives have a fitted effect of over 50% in size
reportedConditions: USP2a Ub-rhodamine110 cleavage, fluorescence; series mostly up to 38.3 µM
Results filed as inconclusive are left out. Active and inactive are the calls of the source. Calls come from the whole dose curve; as a rule, active = well fitted inhibition curve with a large enough effect; inconclusive = small, poorly fitted or top-dose-only effect, or effect the other way; inactive = flat fitted curve, though single readings scatter.
The reply should be one of these categories: True (active), False (inactive)

Worked examples follow.
| molecule | assignedClass |
| --- | --- |
| CC(C)CCn1c(CN2CCN(C(=O)c3ccco3)CC2)nc2c1c(=O)n(C)c(=O)n2C | False |
| O=C(COC(=O)c1cc(-c2ccc(Cl)s2)nc2ccccc12)NCc1ccco1 | True |
| Cc1cc(NC(=O)CN2C(=O)NC3(CCCCC3C)C2=O)no1 (stereo not drawn) | False |
| CC1CCCC(N2CCN(C(=O)c3cccc(F)c3)CC2)C1 (stereo not drawn) | False |
| CCOC(=O)COc1ccccc1/C=N/O | False |
| O=c1oc2c(CN3CCCCC3)c(O)ccc2c2c1CCCCC2 | False |
| O=C(O)c1cccc(-n2cccc2/C=C2/NC(=O)N(c3ccc(Cl)cc3)C2=O)c1 | True |
| COC(=O)c1[nH]c2cc(OC)ccc2c1N | False |

Hey, what did the test say about C=CCn1c(Br)nc2c1c(=O)n(C)c(=O)n2C ?
False

Hey, what did the test say about CCC1SC2=NC(C)=C(C(=O)OCCOC)C(c3ccc(C(=O)OC)cc3)N2C1=O (stereo not drawn) ?
False

Hey, what did the test say about Cc1ccc(-c2c(C)n([O-])c3c([n+]2=O)CCC3)o1 ?
False

Hey, what did the test say about Cc1cc2c(c(=O)n1CC1CCCO1)C(c1ccco1)C(C#N)=C(N)O2 (stereo not drawn) ?
False
